Data provenance is PubChem BioAssay AID686978.

METHOD_SUMMARY: qHTS for Inhibitors of human tyrosyl-DNA phosphodiesterase 1 (TDP1): qHTS in cells in absence of CPT; note: nearly all actives have a fitted effect of over 55% in size
REPORTED_CONDITIONS: DT40 Tdp1-/- hTDP1 cells, no CPT, ATP luminescence, 48 h
Hit rate of the full screen: of about 420,000 compounds, about 64,000 (15%) were called active. Inconclusive results (about 27%) are left out. Calls come from the whole dose curve; as a rule, active = well fitted inhibition curve with a large enough effect; inconclusive = small, poorly fitted or top-dose-only effect; inactive = flat fitted curve, though single readings scatter. Not all results are given here.
Outcomes: 1 for active, -1 for inactive

>>> group("O=C(C1=C[C@H](c2coc3ccccc3c2=O)C[C@H](OCc2ccc(CO)cc2)O1)N1CCN(Cc2ccccc2)CC1")
1
>>> group("O=C(/C=C/c1ccc(F)cc1)Nc1cccc(S(=O)(=O)Nc2cccc(C(F)(F)F)c2)c1")
1
>>> group("Cc1cc(C)c(C#N)c(SCc2ccc3c(c2)OCO3)n1")
-1
>>> group("CCOc1ccc(NC(=S)N2CCCCCC2)cc1")
-1
>>> group("NC(=O)C1=C[C@H](c2csc3ccccc23)C[C@H](OCc2ccc(CO)cc2)O1")
1
>>> group("O=C(NC1CCCCC1)n1c(=O)oc2cc(S(=O)(=O)N3CCCCC3)ccc21")
-1
>>> group("CC(C)(C)C(=O)Nc1ccc(-c2cn3cccnc3n2)cc1")
-1
>>> group("Cc1cc2c(=O)n(CC(=O)NCC(=O)Nc3ccc(C(C)C)cc3)cnc2s1")
-1
>>> group("CCC(C(=O)NC(C)(C)C)n1c(-c2ccccc2)nc2ccccc21 (centres undefined)")
1

###

METHOD_SUMMARY: qHTS for Inhibitors of human tyrosyl-DNA phosphodiesterase 1 (TDP1): qHTS in cells in absence of CPT; note: nearly all actives have a fitted effect of over 55% in size
REPORTED_CONDITIONS: DT40 Tdp1-/- hTDP1 cells, no CPT, ATP luminescence, 48 h
Hit rate of the full screen: of about 420,000 compounds, about 64,000 (15%) were called active. Inconclusive results (about 27%) are left out. Calls come from the whole dose curve; as a rule, active = well fitted inhibition curve with a large enough effect; inconclusive = small, poorly fitted or top-dose-only effect; inactive = flat fitted curve, though single readings scatter. The list is a sample of the results.
Outcomes: yes (active), no (inactive)

>>> group("CCCCCn1c(=O)[nH]c2cc(C(=O)Nc3cc(C)cc(C)c3)ccc2c1=O")
"yes"
>>> group("CC(C)CNc1ncnc2c1nnn2C")
"no"
>>> group("O=C(/C(=C/c1cccc(Cl)c1)c1nc2ccccc2[nH]1)c1ccccc1")
"yes"

###

METHOD_SUMMARY: qHTS for Inhibitors of human tyrosyl-DNA phosphodiesterase 1 (TDP1): qHTS in cells in absence of CPT; note: nearly all actives have a fitted effect of over 55% in size
REPORTED_CONDITIONS: DT40 Tdp1-/- hTDP1 cells, no CPT, ATP luminescence, 48 h
The whole screen tested about 420,000 compounds, of which about 64,000 (15%) were called active. Roughly 27% stayed inconclusive and do not appear here. Calls come from the whole dose curve; as a rule, active = well fitted inhibition curve with a large enough effect; inconclusive = small, poorly fitted or top-dose-only effect; inactive = flat fitted curve, though single readings scatter. These entries were drawn from the full list.
Outcomes: active, inactive

>>> group("COc1ccc(N2CCN(C(=O)c3cccs3)CC2)cc1")
"inactive"
>>> group("COc1ccc(Cc2nnc(NS(=O)(=O)Cc3ccccc3)s2)cc1")
"inactive"
>>> group("COc1ccc(C(=O)Nc2ccnn2C2CCN(Cc3ccncc3)CC2)cc1")
"inactive"
>>> group("COC(=O)c1sc(-c2ccc(C(C)(C)C)cc2)cc1NC(=O)/C=C/C(=O)O")
"active"
>>> group("O=C1CC(c2ccccc2)C(=O)N1c1cccc(O)c1 (configuration not stated)")
"inactive"
>>> group("CC(=O)Nc1ccc(S(=O)(=O)N(C)c2nc3ccccc3nc2Cl)cc1")
"active"
>>> group("O=C(Oc1cccc(C(=S)N2CCOCC2)c1)c1cccc(Cl)c1")
"inactive"
>>> group("Cc1ccc2nc(N(CCN(C)C)C(=O)C3=COCCO3)sc2c1")
"inactive"
>>> group("CC1=C(C(=O)OC2CCCCC2)C(c2cccnc2)n2ncnc2N1 (configuration not stated)")
"active"
>>> group("COC(=O)C1=C(C)Nc2ncnn2C1c1cccnc1 (configuration not stated)")
"inactive"
>>> group("Cc1nc(N)nc(SCc2ccc([N+](=O)[O-])cc2)c1N")
"active"
>>> group("Cc1csc(-c2nc3ccccc3n2C)n1")
"active"
>>> group("COC(=O)c1ccc2c(c1)S(=O)(=O)NC2C (configuration not stated)")
"inactive"
>>> group("Cc1cccc[n+]1CC(=O)c1ccccc1")
"inactive"
>>> group("COc1ccc(N2C(=O)CC(Sc3n[nH]c(-c4ccc(C)cc4)n3)C2=O)cc1 (configuration not stated)")
"active"
>>> group("Cc1ccccc1C(=O)NC(=S)NC1CC1")
"inactive"
>>> group("CC(C)(C)c1ccc(C(=O)C[n+]2cccc3cc(Cl)ccc32)cc1")
"active"
